- ASSAY_PROCEDURE: Aqueous equilibrium solubility of compound in pH 7.4 solution at 20 degC
- CONDITIONS: aqueous pH 7.4 solution
This section presents molecules with their documented solubility thermodynamic values.
REPORTED_METRIC: solubility thermodynamic

1) Cn1c(NCCc2ccccc2)nc2cc(Cl)ccc2c1=O | < 1 µg/mL
2) Cn1c(NCCc2ccc(-c3ncc(Cl)cn3)cc2)nc2cc(Cl)ccc2c1=O | < 1 µg/mL
3) Cn1c(NCCc2ccc(Oc3ccc(Cl)cc3)cc2)nc2cc(Cl)ccc2c1=O | < 1 µg/mL
4) Cn1c(NCCc2ccc(N3CCOCC3)cc2)nc2cc(Cl)ccc2c1=O | 8 µg/mL

----------
- ASSAY_PROCEDURE: Aqueous equilibrium solubility of compound in pH 7.4 solution at 20 degC
- CONDITIONS: aqueous pH 7.4 solution
REPORTED_METRIC: solubility thermodynamic

1) COc1ccc(-c2ccc(CCNc3nc4cc(Cl)ccc4c(=O)n3C)cc2)cc1 | < 1 µg/mL
2) Cn1c(NCCc2ccc(-c3ccc(Cl)cn3)cc2)nc2cc(Cl)ccc2c1=O | < 1 µg/mL
3) Cn1c(NCCc2ccc(-n3cc(Cl)cn3)cc2)nc2cc(Cl)ccc2c1=O | < 1 µg/mL
4) COc1ccc(CCNc2nc3cc(OC)ccc3c(=O)n2C)cc1 | 4 µg/mL
5) Cn1c(NCCc2ccc(-c3ncc(F)cn3)cc2)nc2cc(Cl)ccc2c1=O | < 1 µg/mL
6) COc1ccc(CCNc2nc3cc(Cl)ccc3c(=O)n2C)cc1 | ≤ 1 µg/mL
7) COc1ccc(CCNc2nc3cc(Cl)ccc3c(=O)n2C)nc1 | 9 µg/mL
8) Cn1c(NCCc2ccc(OC(F)(F)F)cc2)nc2cc(Cl)ccc2c1=O | < 1 µg/mL
9) COc1ccc(CCNc2nc3cc(C)ccc3c(=O)n2C)cc1 | < 1 µg/mL
10) Cn1c(NCCc2ccc(-c3ccccc3)cc2)nc2cc(Cl)ccc2c1=O | < 1 µg/mL
11) Cn1c(NCCc2ccc(-c3ccc(F)cc3)cc2)nc2cc(Cl)ccc2c1=O | < 1 µg/mL

----------
- ASSAY_PROCEDURE: AUC in Balb/c mouse lungs infected with Mycobacterium tuberculosis H37Rv at 300 mg/kg, po administered through gavage as 5% soluplus/acetate buffer formulation
- Format: ADME, organism-based
- CONDITIONS: lung
REPORTED_METRIC: AUC (µg·h/mL)

1. Cn1c(NCCc2ccc(-c3ccc(F)cc3)cc2)nc2cc(Cl)ccc2c1=O.O=S(=O)(O)O | 980

----------
- ASSAY_PROCEDURE: AUC in Balb/c mouse plasma infected with Mycobacterium tuberculosis H37Rv at 10 to 100 mg/kg, po administered through gavage as lipidic/water formulation
- Type: ADME, organism-based
REPORTED_METRIC: AUC

1. Cn1c(NCCc2ccc(Oc3ccc(Cl)cc3)cc2)nc2cc(Cl)ccc2c1=O | 21000 ng·h/mL

----------
- ASSAY_PROCEDURE: Aqueous equilibrium solubility of compound in pH 1 solution at 20 degC
- CONDITIONS: aqueous pH 1 solution
REPORTED_METRIC: solubility thermodynamic (µg/mL)

1) COc1ccc(CCNc2nc3cc(Cl)ccc3c(=O)n2C)cc1 | 11
2) Cn1c(NCCc2ccc(N3CCOCC3)cc2)nc2cc(Cl)ccc2c1=O | 1090
3) Cn1c(NCCc2ccc(-c3ccccc3)cc2)nc2cc(Cl)ccc2c1=O | 5
4) COc1ccc(-c2ccc(CCNc3nc4cc(Cl)ccc4c(=O)n3C)cc2)cc1 | 26
